B1: Twister Ribozyme (parent)
chain: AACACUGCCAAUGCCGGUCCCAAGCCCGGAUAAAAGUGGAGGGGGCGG

Variants of: B1
Experiment: self-cleavage, relative activity (ratio to wild type); higher = more cleavage; co-transcriptional
assay.readout: self-cleavage

Sample records with self-cleavage:
INSERT INTO assay_data (monomer_sequence, recorded_value) VALUES
  ('AACACUGCCAAUGACGGUGCCAAGCCCGGAUAAAAGUGGAGGGGGCGG [C14A C19G]', 0.359),
  ('AACACUGCCAAUGCCGGUCCCAAGCCCGCAUAAAAGUGGAGGUGGCGG [G29C G43U]', 0.156),
  ('AACACUGCCAAUGCCGGUCGCAAGCCCGGAUUAAAGUGGAGGGGGCGG [C20G A32U]', 0.0524);

Hi, could you look up self-cleavage for each item in my list?
1. AACACUGCCAAUGCCGUUCCCGAGCCCGGAUAAAAGUGGAGGGGGCGG [G17U A22G]
2. AACACUGCCAAUGGCGGUCCCAAGCCCGGAUAAAAGUGGAGGGGCCGG [C14G G45C]
3. AACACUUCCAAUGCCGGUCCCAAGCCCGGAUAAAAGUGGAGGUGGCGG [G7U G43U]
4. AACACUGCCAAUGCCGGUCCCAAUCCCGGAUAAAAGUGGUGGGGGCGG [G24U A40U]
5. AACAGUGCCAAUGCCGGUCCCAAGCCCGGAUAAACGUGGAGGGGGCGG [C5G A35C]
6. AACACUGCCAGUGCCGGUCCCAAGCCCGGAUAAAAUUGGAGGGGGCGG [A11G G36U]
7. AACACUGCCAAUGCCAGUCCCAAGCCCGGAUAAAGGUGGAGGGGGCGG [G16A A35G]
8. AACACUGCCAACGCCGGUCCCAAGCCCGGAUAAAAGUGGAGGCGGCGG [U12C G43C]

## Result
1. 0.103
2. 0.0594
3. 0.102
4. 0.0893
5. 0.742
6. 0.431
7. 0.555
8. 0.145

List self-cleavage for every entry below, keeping the order given.
1. AACACUGCCCAUGCGGGUCCCAAGCCCGGAUAAAAGUGGAGGGGGCGG [A10C C15G]
2. AACGCUGCCAAUGCCGGUCCCAAGCCCGGAUAAAAGUGGAGGGGACGG [A4G G45A]
3. AACACUGCGAAUGCCGGUCCCAAGCCCGGAGAAAAGUGGAGGGGGCGG [C9G U31G]
4. AACACUGCCAGUGCCGGUACCAAGCCCGGAUAAAAGUGGAGGGGGCGG [A11G C19A]
5. ACCACUGCCAAUGCCGGUCCCAAGCCCGGAUAAACGUGGAGGGGGCGG [A2C A35C]
6. AACACUGCCAAUGCCGGUCCCAAGCCCGGAUAAAAUUGGAGGGGCCGG [G36U G45C]

## Result
1. 0.0331
2. 0.955
3. 0.781
4. 0.221
5. 0.064
6. 0.199

Hello, I would appreciate it if you could give self-cleavage for each entry below.
1. AACACUGCCCAUGCCGUUCCCAAGCCCGGAUAAAAGUGGAGGGGGCGG [A10C G17U]
2. AACACUGCCAAUACCGGUCCCAAGCCCGGAUAAAAGUGGAGGAGGCGG [G13A G43A]

## Result
1. 0.408
2. 0.14

Batch lookup, self-cleavage per entry.
1. AACACUGCCAAUGCCGGUCCCAAGCCCGGAUAUAAGUGGAGGGGGCGG [A33U]
2. AACACUGCCAAUUCCGGUCCCAAGCCCCGAUAAAAGUGGAGGGGGCGG [G13U G28C]
3. AACACUGACAAUGCCGGUCCCAAGCCCGGAUAAAAGUGGAGUGGGCGG [C8A G42U]

## Result
1: 0.998; 2: 0.405; 3: 0.168

Hello, the source for this data is the RNAGym collection of RNA variant scans (doi:10.7554/elife.80360), in case you need it.
